# credit: PubChem BioAssay (NCI)

Reported values of TGI for individual entries
# Test system: EKVX NSCLC
# experimental-protocol: NCI tumour cell line growth inhibition, 48 h

{"columns": ["compound", "TGI"],
 "data": [
  ["COC(=O)C1(CCC(=O)N(C)c2ccccc2)NNC2C(=O)N(c3ccccc3)C(=O)C21 (stereo not drawn)", "> 10 µM"],
  ["CN(C)C(=S)/N=c1\\ssc(=Nc2ccccc2)n1C", "> 100 µM"],
  ["C[C@]12CCC(=O)C(O)=C1CCC2=O", "> 100 µM"]
]}

====

Reported values of TGI for individual entries
# Test system: U251 CNS
# experimental-protocol: NCI tumour cell line growth inhibition, 48 h
endpoint: TGI

{"columns": ["molecule", "reading"],
 "data": [
  ["COC(=O)[C@@H]1c2[nH]c3ccccc3c2C[C@@H]2c3ccccc3NC(=O)[C@@H]21", "> 100 µM"],
  ["O=C(Nc1cccc([N+](=O)[O-])c1)/C(=N\\NC(=O)c1ccncc1)c1nc2ccc([N+](=O)[O-])cc2[nH]c1=O", "> 100 µM"],
  ["CC(C)OP(=O)(OC(C)C)/C(F)=N/Nc1ccc([N+](=O)[O-])cc1", "> 100 µM"],
  ["COc1ccc(/C=C/C(=O)Nc2cc(/C=C\\c3cc(OC)c(OC)c(OC)c3)cc(OC)c2OC)cc1OC", "> 100 µM"],
  ["O=c1oc2c([N+](=O)[O-])cc([N+](=O)[O-])cc2c2ccccc12", "> 100 µM"],
  ["N#Cc1c(=N)cc2c3ccccc3oc3c(C#N)c(N)[nH]c1c32", "> 100 µM"],
  ["O=C1C2=C(C(c3ccccc3)=C1c1ccccc1)c1ccccc1C1(c3ccccc3)C2=C(O)C(c2ccccc2)=C1c1ccccc1 (centres undefined)", "> 100 µM"],
  ["CCN(CC)c1c(C(=O)/C=C/c2ccc(F)cc2)c(-c2ccccc2)nn(C)c1=O", "19.1 µM"],
  ["CCCCS/C(=C(/C#N)C(N)=O)c1cc2c([nH]1)CCCC2", "31.2 µM"],
  ["COc1ccc(/C=C2\\C(=O)NC(=O)c3ccccc32)cc1OC", "> 63.5 µM"],
  ["CCOC(=O)C1=C(C)N2CCOC2(C)C(C(=O)OC)C1c1cccc(Cl)c1 (centres undefined)", "> 100 µM"],
  ["NC1(P(=O)(O)O)CCCCC1", "> 100 µM"],
  ["O=c1cc(-c2ccccc2)[nH]c2ccc(N3CCCC3)cc12", "> 46.9 µM"],
  ["O=S(=O)(Nc1ccc2ccccc2c1)N1CCCCC1", "26.7 µM"],
  ["Nc1nc2c3c(ncn3CC(O)CO2)n1 (centres undefined)", "> 100 µM"],
  ["O=C1/C(=C/c2ccc(Cl)cc2)N=C(c2ccccc2)N1c1nc2ccc(Sc3ccccc3)cc2[nH]1", "84.7 µM"],
  ["COC(=O)[C@]12CC[C@@H](C)[C@H](C)[C@@H]1C1=CC[C@@H]3[C@@]4(C)C[C@@H](OC(C)=O)[C@H](O)[C@@](C)(CO)[C@@H]4[C@H](O)C[C@@]3(C)[C@]1(C)CC2", "23.9 µM"],
  ["CCC(C)CN=C(N)c1ccc(N2CCN(c3ccc(C(N)=NCC(C)CC)cc3)CC2)cc1 (centres undefined)", "19.4 µM"],
  ["Cc1c(C)n(COCCO)c2ncnc(N)c12", "> 100 µM"]
]}
